Experimental Target: CDK6/Cyclin D3 (Homo sapiens (Human))
Sequence (Q00534 whole entry): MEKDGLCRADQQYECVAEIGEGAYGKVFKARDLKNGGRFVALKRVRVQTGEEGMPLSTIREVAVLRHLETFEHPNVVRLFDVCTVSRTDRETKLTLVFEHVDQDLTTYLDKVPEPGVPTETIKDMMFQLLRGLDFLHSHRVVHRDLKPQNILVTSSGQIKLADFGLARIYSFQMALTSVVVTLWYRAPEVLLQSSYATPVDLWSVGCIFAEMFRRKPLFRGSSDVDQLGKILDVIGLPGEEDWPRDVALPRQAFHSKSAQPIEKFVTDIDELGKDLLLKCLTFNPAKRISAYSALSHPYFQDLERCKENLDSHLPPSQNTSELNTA
Sequence (P30281 whole entry partner): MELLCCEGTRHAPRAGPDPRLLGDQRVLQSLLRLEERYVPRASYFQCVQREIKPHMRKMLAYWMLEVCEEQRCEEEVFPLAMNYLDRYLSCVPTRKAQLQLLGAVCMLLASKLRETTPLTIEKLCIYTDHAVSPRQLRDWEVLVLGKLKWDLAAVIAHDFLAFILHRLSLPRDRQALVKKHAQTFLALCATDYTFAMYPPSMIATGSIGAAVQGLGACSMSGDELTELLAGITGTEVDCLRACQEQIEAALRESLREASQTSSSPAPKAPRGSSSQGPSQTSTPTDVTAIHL
Experimental Protocol: CDK6/Cyclin D3 kinase TR-FRET inhibition assay
Run Conditions: 1 mM ATP, Rb (Ser780)-biotin substrate, read-out: CDK6D3 IC50
Quantity: IC50 (nM)

[
  {
    "Compound": "CC(C)c1c(CNC2CC(F)(F)C2)cnc2ccc(-c3nc(N[C@@H]4CCOC[C@H]4O)ncc3F)cc12 [Example 20]",
    "Endpoint Unit": "nM",
    "IC50": 600
  }
]

A = CC(C)c1ccnc2ccc(-c3nc(N[C@@H]4CCOC[C@H]4O)ncc3Cl)cc12 [Example 4]
B = CC(C)c1c(CN2CCOCC23CC3)cnc2ccc(-c3nc(N[C@@H]4CCOC[C@H]4O)ncc3F)cc12 [Example 36]
For this pair, A and B , which shows a numerically higher IC50? # answer = label of selected item
A

P = CC(C)c1c(C2(O)CCCC2)cnc2ccc(-c3nc(N[C@@H]4CCOC[C@H]4O)ncc3F)cc12 [Example 50]
Q = CC(C)c1c(CN[C@H]2CCCOC2)cnc2ccc(-c3nc(N[C@@H]4CCOC[C@H]4O)ncc3F)cc12 [Example 37]
R = CC(C)c1cc(C(C)(C)O)nc2ccc(-c3nc(N[C@@H]4CCOC[C@H]4O)ncc3F)cc12 [Example 206]
Order the entries by their reported IC50, beginning at the minimum. Thanks in advance for listing the labels in the requested order.
P, Q, R

====

Experimental Target: CDK4/Cyclin D1 (Homo sapiens (Human))
Sequence (P11802 whole entry): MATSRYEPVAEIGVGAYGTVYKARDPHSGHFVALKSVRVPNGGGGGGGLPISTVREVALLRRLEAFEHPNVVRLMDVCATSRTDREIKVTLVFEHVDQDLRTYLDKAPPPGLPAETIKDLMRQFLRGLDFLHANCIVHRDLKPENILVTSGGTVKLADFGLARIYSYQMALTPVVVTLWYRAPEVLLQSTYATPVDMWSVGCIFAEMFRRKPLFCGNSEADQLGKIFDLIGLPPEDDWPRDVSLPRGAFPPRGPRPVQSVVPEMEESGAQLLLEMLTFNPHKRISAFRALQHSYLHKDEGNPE
Sequence (P24385 whole entry partner): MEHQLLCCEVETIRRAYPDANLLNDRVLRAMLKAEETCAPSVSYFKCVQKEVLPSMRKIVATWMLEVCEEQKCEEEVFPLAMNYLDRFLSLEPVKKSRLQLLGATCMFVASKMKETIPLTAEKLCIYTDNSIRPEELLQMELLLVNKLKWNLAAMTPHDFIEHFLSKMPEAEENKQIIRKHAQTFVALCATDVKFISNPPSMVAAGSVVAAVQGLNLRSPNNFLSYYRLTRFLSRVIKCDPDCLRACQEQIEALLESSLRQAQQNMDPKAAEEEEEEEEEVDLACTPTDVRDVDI
Experimental Protocol: CDK4/Cyclin D1 kinase TR-FRET inhibition assay
Run Conditions: 1 mM ATP, Rb (Ser780)-biotin substrate, read-out: CDK4D1 IC50
pIC50: −log10 of the molar value.
Quantity: pIC50

[
  {
    "Compound": "CC(C)c1c(CN2CC(O)C2)cnc2ccc(-c3nc(N[C@@H]4CCOC[C@H]4O)ncc3F)cc12 [Example 16]",
    "Experimental Target": "CDK4/Cyclin D1 (Homo sapiens (Human))",
    "pIC50": 7.82
  },
  {
    "Compound": "CC(C)c1c([C@H](C)O)cnc2ccc(-c3nc(N[C@@H]4CCOC[C@H]4O)ncc3F)cc12 [Example 41]",
    "Experimental Target": "CDK4/Cyclin D1 (Homo sapiens (Human))",
    "pIC50": 8.00
  },
  {
    "Compound": "CC(C)c1c(CN2CC3CC(C2)O3)cnc2ccc(-c3nc(N[C@@H]4CCOC[C@H]4O)ncc3F)cc12 [Example 14]",
    "Experimental Target": "CDK4/Cyclin D1 (Homo sapiens (Human))",
    "pIC50": 7.92
  },
  {
    "Compound": "CC(C)c1c(CN2[C@H](C)COC[C@H]2C)cnc2ccc(-c3nc(N[C@@H]4CCOC[C@H]4O)ncc3F)cc12 [Example 69]",
    "Experimental Target": "CDK4/Cyclin D1 (Homo sapiens (Human))",
    "pIC50": 8.08
  },
  {
    "Compound": "CC(C)c1c(CNC2CCOC2)cnc2ccc(-c3nc(N[C@@H]4CCOC[C@H]4O)ncc3F)cc12 (stereo partly drawn) [Example 21]",
    "Experimental Target": "CDK4/Cyclin D1 (Homo sapiens (Human))",
    "pIC50": 7.82
  }
]

I = CC(C)c1c(CN2C[C@@H](O)[C@H](F)C2)cnc2ccc(-c3nc(N[C@@H]4CCOC[C@H]4O)ncc3F)cc12 [Example 54]
II = CC(C)c1c(CN2CCOCC2)cnc2ccc(-c3nc(N[C@@H]4CCOC[C@H]4O)ncc3F)cc12 [Example 17]
Between I and II , which one shows the larger pIC50 value? Kindly state the label of the option you pick.
II

1 = CC(C)c1c([C@H](C)N2CC[C@@H](F)C2)cnc2ccc(-c3nc(N[C@@H]4CCOC[C@H]4O)ncc3F)cc12 [Example 47]
2 = CC(C)c1c(CNC2CC2)cnc2ccc(-c3nc(N[C@@H]4CCOC[C@H]4O)ncc3F)cc12 [Example 25]
Short answer wanted: higher pIC50, 1 or 2 ? Write down the label attached to your selection.
2
(2: 8.08, 1: 7.60)

a = CC(C)c1c(CN2CC[C@H](F)C2)cnc2ccc(-c3nc(N[C@@H]4CCOC[C@H]4O)ncc3F)cc12 [Example 18]
b = CC(C)c1c(CN2CCC[C@@H](C#N)C2)cnc2ccc(-c3nc(N[C@@H]4CCOC[C@H]4O)ncc3F)cc12 [Example 62]
Field: lower pIC50 | Options: a / b Choose, then provide that item's label.
a
